test system: β-glucosidase; assay: β-glucosidase inhibition assay; format: biochemical; settings: final concentration of 100 μM in every well; pH 6.8, 37 °C
measured-quantity: β-glucosidase % age inhibition (%)

{"compound": "C[C@H]1O[C@H](O[C@H]2[C@H](O)[C@@H](O)[C@@H](O[C@H]3[C@H](O)[C@@H](O)C(O)O[C@@H]3CO)O[C@@H]2CO)[C@H](O)[C@@H](O)[C@@H]1N[C@H]1C=C(CO)[C@@H](O)[C@H](O)[C@H]1O (stereo partly shown) [acarbose, reference compound]", "result": 63.7}
{"compound": "O=C(N=c1scc(-c2ccc(F)cc2)n1-c1ccccc1F)c1ccccc1Cl", "result": 24.2}
{"compound": "COc1cc(C(=O)N=c2scc(-c3ccc(F)cc3)n2-c2cccc(F)c2)cc(OC)c1OC", "result": 15.4}
{"compound": "O=C(N=c1scc(-c2ccc(F)cc2)n1-c1ccc(F)c(Cl)c1)c1ccc(F)cc1", "result": 20.1}
{"compound": "O=C(N=c1scc(-c2ccc(F)cc2)n1-c1ccc(F)cc1)c1ccccc1Cl", "result": 17.5}
{"compound": "COc1cc(C(=O)N=c2scc(-c3ccc(F)cc3)n2-c2ccc(F)cc2)cc(OC)c1OC", "result": 9.33}
{"compound": "O=C(N=c1scc(-c2ccc(F)cc2)n1-c1ccccc1F)c1cccc(F)c1", "result": 18.6}
{"compound": "O=C(N=c1scc(-c2ccc(F)cc2)n1-c1ccc(F)c(Cl)c1)c1ccccc1F", "result": 12.8}
{"compound": "O=C(N=c1scc(-c2ccc(F)cc2)n1-c1ccccc1F)c1ccccc1F", "result": 36.3}
{"compound": "COc1cc(C(=O)N=c2scc(-c3ccc(F)cc3)n2-c2ccc(F)c(Cl)c2)cc(OC)c1OC", "result": 11.2}

----------
biological target: α-glucosidase (Saccharomyces cerevisiae)
Sequence (P53341 whole entry): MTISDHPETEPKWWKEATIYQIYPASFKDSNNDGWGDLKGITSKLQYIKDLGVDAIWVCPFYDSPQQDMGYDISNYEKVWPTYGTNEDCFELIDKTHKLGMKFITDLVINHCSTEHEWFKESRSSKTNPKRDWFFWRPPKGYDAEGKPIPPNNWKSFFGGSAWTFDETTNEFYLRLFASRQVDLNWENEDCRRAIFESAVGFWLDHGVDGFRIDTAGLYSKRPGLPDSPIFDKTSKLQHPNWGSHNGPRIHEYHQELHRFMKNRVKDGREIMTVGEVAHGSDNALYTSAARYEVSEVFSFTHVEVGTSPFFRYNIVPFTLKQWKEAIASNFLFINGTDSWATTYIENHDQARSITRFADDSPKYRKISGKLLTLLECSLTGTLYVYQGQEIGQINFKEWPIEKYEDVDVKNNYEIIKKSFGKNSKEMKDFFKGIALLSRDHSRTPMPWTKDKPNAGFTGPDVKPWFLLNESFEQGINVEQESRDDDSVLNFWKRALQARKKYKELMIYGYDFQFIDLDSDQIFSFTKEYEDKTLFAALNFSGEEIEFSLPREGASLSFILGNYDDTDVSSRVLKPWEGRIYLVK
Threshold check on IC50: strictly below 3 µM is Met; on or above 3 µM is Not met.

{"molecule": "COc1cc(C(=O)N=c2scc(-c3ccc(F)cc3)n2-c2ccc(F)c(Cl)c2)cc(OC)c1OC", "class-assignment": "Not met"}
{"molecule": "O=C(N=c1scc(-c2ccc(F)cc2)n1-c1ccc(F)c(Cl)c1)c1ccccc1F", "class-assignment": "Not met"}
{"molecule": "COc1cc(C(=O)N=c2scc(-c3ccc(F)cc3)n2-c2cccc(F)c2)cc(OC)c1OC", "class-assignment": "Not met"}
{"molecule": "O=C(N=c1scc(-c2ccc(F)cc2)n1-c1ccc(F)cc1)c1ccccc1Cl", "class-assignment": "Not met"}
{"molecule": "O=C(N=c1scc(-c2ccc(F)cc2)n1-c1ccccc1F)c1ccccc1Cl", "class-assignment": "Not met"}
{"molecule": "O=C(N=c1scc(-c2ccc(F)cc2)n1-c1ccc(F)c(Cl)c1)c1ccc(F)cc1", "class-assignment": "Not met"}
{"molecule": "O=C(N=c1scc(-c2ccc(F)cc2)n1-c1ccccc1F)c1cccc(F)c1", "class-assignment": "Met"}
{"molecule": "COc1cc(C(=O)N=c2scc(-c3ccc(F)cc3)n2-c2ccc(F)cc2)cc(OC)c1OC", "class-assignment": "Met"}
